Numbers sourced from paper PMC9022726.

- MEASUREMENT_TARGET: tau K18 (Homo sapiens, UniProt P10636)
- Sequence (P10636 561-689): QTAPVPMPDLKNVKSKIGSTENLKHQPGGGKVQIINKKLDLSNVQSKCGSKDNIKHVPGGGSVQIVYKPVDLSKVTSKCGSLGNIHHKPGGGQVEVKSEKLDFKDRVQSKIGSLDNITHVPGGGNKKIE
READOUT: Kd (µM)

| COMPOUND | UNIT_NAME | VALUE |
| --- | --- | --- |
| O=c1c(O)c(-c2ccc(O)c(O)c2)oc2cc(O)ccc12 | µM | 22.6 |
